target: T1, PD-L1-Fc (PD-L1 antigen protein, extracellular region Met1-Thr239 fused to human Fc) (human, UniProt Q9NZQ7 19-239); assay: BLI (Octet); PD-1-coated biosensor dipped in a mix of PD-L1 antigen protein and antibody; KD from the Octet software
T1 construct: range 1-239; the secreted protein lacks it; also called PD-L1-Fc antigen; pCEP4-PDL1-Fc product; not shown: human Fc fragment of the pCEP4-Fc vector
T1 sequence (Q9NZQ7 19-239): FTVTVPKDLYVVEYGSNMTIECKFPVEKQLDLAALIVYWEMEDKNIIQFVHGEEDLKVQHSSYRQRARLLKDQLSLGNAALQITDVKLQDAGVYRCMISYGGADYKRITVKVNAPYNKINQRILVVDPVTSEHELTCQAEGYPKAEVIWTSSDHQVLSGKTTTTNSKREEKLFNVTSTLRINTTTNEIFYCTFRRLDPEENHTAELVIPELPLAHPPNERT
Could you please report measured Kd for the items listed next?
One number for each entry, in nM.

Past entries and their recorded results:
KL001-19 (antibody, V domains shown) VH: QVQLVESGAEVKKPGSSVKVSCKASGGTFSSYAISWVRQAPGQGLEWMGRIIPILGIANYAQKFQGRVTVTADKSTSTAYMELSSLRSEDTAVYYCARSGYGYAYGSFDYWGQGTLVTVSS VL: QLVLTQPPSVSGAPGQTVTISCTGPTIGAGYDVHWYQQLPGAAPKLLIYGNLNRPSGVPDRFSGSKSGTSASLAITDLQAEDEADYYCQSYDSTVGVVFGGGTKLTVL ... 0.00655
KL001-27 (antibody, V domains shown) VH: QVQLVESGAEVKKPGSSVKVSCKASGGTFSSYAISWVRQAPGQGLEWMGRIIPILGIANYAQKFQGRVTVTADKSTSTAYMELSSLRSEDTAVYYCARSGYGYAYGSFDYWGQGTLVTVSS VL: QLVLTQPPSVSGAPGQTVTISCTGQTIGAGYDVHWYQQLPGAAPKLLIYGNLNRPSGVPDRFSGSKSGTSASLAITDLQAEDEADYYCQSYDSTDGVVFGGGTKLTVL ... 0.0612

# input for lookup
Prompt line: Provide one value: measured Kd of KL001-09 (antibody, V domains shown) VH: QVQLVESGAEVKKPGSSVKVSCKASGGTFSSYAISWVRQAPGQGLEWMGRIIPILQIANYAQKFQGRVTVTADKSTSTAYMELSSLRSEDTAVYYCARSGYGYAYGSFDYWGQGTLVTVSS VL: QLVLTQPPSVSGAPGQTVTISCTGPPIGAGYDVHWYQQLPGAAPKLLIYGNLNRPSGVPDRFSGSKSGTSASLAITDLQAEDEADYYCQSYDSTPGVVFGGGTKLTVL
Response line: 0.0216

Ref: patent US20220195049A1
